Ok so here's the combined literature set: pKi for Cathepsin B (Homo sapiens).
pKi is a log-scale quantity: -log10 of the concentration expressed in molar.

Example entries begin here.
| COMPOUND | MEASUREMENT_NAME | RECORDED_VALUE |
| --- | --- | --- |
| CCCC[C@H](NC(=O)[C@@H](NC(=O)c1cccc(C(N)=O)c1)C(C)CC)C(=O)CO (stereo partly specified) | pKi | 5.94 |
| CS(=O)(=O)/C=C/[C@H](CCc1ccccc1)NC(=O)CN1C(=O)[C@@H](COC(=O)Nc2ccc(Cl)cc2C(F)(F)F)N=C(c2ccccc2)c2ccccc21 | pKi | 4.84 |

Could you tell me which pKi is on file for COc1cc(/C=C/C=C/C(=O)c2ccc(O)cc2)ccc1O ?
5.32

Same read-out for CC(C)C[C@H](NC(=O)c1cc2ccccc2o1)C(=O)N[C@H]1CCCN(S(=O)(=O)c2ccccn2)CC1=O ?
6.30

Same read-out for O=CC(Cc1ccccc1)NC(=O)[C@H]1CSCN1S(=O)(=O)c1ccc(Br)cc1 (mixture of isomers) ?
7.05

Same read-out for CC(C)C[C@H](NC(=O)OCc1ccccc1)C(=O)NC(Cc1ccccc1)C(=O)C(=O)NCCCn1cnc2c(N)ncnc21 (stereo partly specified) ?
5.76

Same read-out for O=CC(Cc1ccccc1)NC(=O)[C@H]1CCCN1S(=O)(=O)c1ccc(F)cc1 (mixture of isomers) ?
5.16

Same read-out for O=C(/C=C/c1ccc(O)c2ccccc12)c1ccc(O)cc1O ?
4.97

Same read-out for CS(=O)(=O)N[C@H](COCc1ccccc1)C(=O)N[C@H](C=O)Cc1ccccc1 ?
7.49

---

pKi: −log10 of the molar value.
Ok so here's the combined literature set: pKi for Cathepsin B (Homo sapiens).

| COMPOUND | pKi |
| --- | --- |
| CC(C)C[C@H](NC(=O)OCc1ccccc1)C(=O)NC1CN(C(=O)[C@H](CC(C)C)NC(=O)OCc2ccccc2)CC1=O (some centres undefined) | < 6.00 |
| COCC(=O)[C@H](C)NC(=O)[C@H](CC(C)C)NC(=O)OCc1ccccc1 | < 6.00 |
| CCC[C@H](NC(=O)OC(C)(C)C)C(=O)c1nnc(-c2ccc(N(C)C)cc2)o1 | < 3.82 |

Requested read-out pKi, target or system Cathepsin B (Homo sapiens), entry CC(C)C[C@H](NC(=O)OCc1ccccc1)C(=O)N1CC(=O)C(NC(=O)c2ccc(Oc3ccccc3)cc2)C1 (some centres undefined)
< 6.00

---

Ok so here's the combined literature set: Ki for Cathepsin B (Homo sapiens, UniProt P07858).

Example entries begin here.
| COMPOUND | RECORDED_VALUE |
| --- | --- |
| CC(C)C[C@@H](C(=O)NCC(=O)CNS(=O)(=O)c1ccc(Oc2ccccc2)cc1)c1cccc(-c2ccccc2)c1 | > 10 µM |
| CC(C)C[C@H](NC(=O)OCc1ccccc1)C(=O)NC1CCCC1=O (stereo partly drawn) | > 10 µM |

Could you tell me which Ki is on file for CC(C)C[C@H](NC(=O)OCc1ccccc1)C(=O)NC1CN(C(=O)c2ccc(Oc3ccccc3)cc2)CC1=O (stereo partly drawn) ?
> 1 µM

Same read-out for CC(C)C[C@@H](CN1CC(=O)C(NC(=O)[C@H](CC(C)C)NC(=O)OCc2ccncc2)C1)NC(=O)OCc1ccccc1 (stereo partly drawn) ?
> 1 µM

Same read-out for CC(C)C[C@H](NC(=O)OCc1ccccc1)C(=O)N[C@@H]1CCN(C(=O)[C@H](CC(C)C)NC(=O)OCc2ccccc2)C[C@H]1O ?
> 1 µM

Same read-out for CCC[C@H](NC(=O)OC(C)(C)C)C(=O)c1nnc(-c2ccccc2OC)o1 ?
> 150 µM

Same read-out for CCC[C@H](NC(=O)[C@@H]1C2CCCC2CN1C(=O)[C@@H](NC(=O)[C@@H](NC(=O)c1cnccn1)[C@@H](C)CC)C(C)(C)C)C(=O)C(=O)NC1CC1 (stereo partly drawn) ?
10 µM

Same read-out for CC(C)C[C@H](NC(=O)c1cc2ccccc2o1)C(=O)N[C@@H]1C(=O)CN(S(=O)(=O)c2ccccn2)CC[C@H]1C ?
> 1 µM

---

Ok so here's the combined literature set: Ki for Cathepsin B (Homo sapiens).

Example entries begin here.
| MOLECULE | TARGET_UNDER_TEST | RECORDED_VALUE |
| --- | --- | --- |
| CCC[C@H](NC(=O)OC(C)(C)C)C(=O)c1nnc(C(C)C)o1 | Cathepsin B (Homo sapiens) | > 150 µM |
| C[C@@H](CC1CCCCC1)OC(=O)CN(C)C#N | Cathepsin B (Homo sapiens) | 2.6 µM |
| CC(C)C[C@H](NC(=O)c1cccc2cccnc12)C(=O)N[C@H]1CCCN(S(=O)(=O)c2ccccn2)CC1=O | Cathepsin B (Homo sapiens) | > 1 µM |
| COCC(=O)[C@H](CCc1ccccc1)NC(=O)[C@H](CC(C)C)NC(=O)OCc1ccccc1 | Cathepsin B (Homo sapiens) | > 150 µM |
| CC(C)C[C@H](NC(=O)OCc1ccccc1)C(=O)NC1CCN(S(=O)(=O)c2ccc(Oc3ccccc3)cc2)CC1=O (stereo partly specified) | Cathepsin B (Homo sapiens) | > 1 µM |

Continue with the next molecule.
Could you tell me which Ki is on file for CC(C)C[C@H](NC(=O)OCc1ccccc1)C(=O)N1CC(=O)C(NC(=O)[C@@H](CC(C)C)NC(=O)OCc2ccccc2)C1 (stereo partly specified) ?
> 1 µM
